- experimentalTarget: ATR kinase (full-length ATR) (Homo sapiens)
- Construct: in the presence of 5 nM full-length ATR
- methodNotes: ATR Inhibition Assay (radioactive-phosphate incorporation)
- testContext: Ki(app); 5 nM full-length ATR, 10 μM ATP, 800 μM target peptide, 25° C.
assayMetric: Ki

1. Nc1nn2cc(F)cnc2c1C(=O)Nc1ccncc1N1CCCC1
10 to 1000 nM
2. Cc1nsc(NC(=O)c2c(N)nn3cc(F)cnc23)c1CN1CCCC1
< 10 nM
3. CN1CCN(Cc2ccc(-c3cnncc3NC(=O)c3c(N)nn4cc(F)cnc34)cc2)CC1
10 to 1000 nM
4. CC(C)Oc1ncncc1NC(=O)c1c(N)nn2ccc(OCCN(C)C)nc12
1000 to 5000 nM
5. Cc1nsc(NC(=O)c2c(N)nn3cc(F)cnc23)c1-c1cnn(C)c1
10 to 1000 nM

---

Ki values, listed per item
- experimentalTarget: ATR kinase (full-length ATR) (Homo sapiens)
- Construct: in the presence of 5 nM full-length ATR
- methodNotes: ATR Inhibition Assay (radioactive-phosphate incorporation)
- testContext: Ki(app); 5 nM full-length ATR, 10 μM ATP, 800 μM target peptide, 25° C.
assayMetric: Ki

1. CN1CCN(C(=O)C2CCN(c3cnccc3NC(=O)c3c(N)nn4cc(F)cnc34)CC2)CC1 [I-C-3]
10 to 1000 nM
2. COc1cnccc1NC(=O)c1c(N)nn2ccc(C(F)(F)F)nc12 [I-C-4]
10 to 1000 nM
3. Nc1nn2cc(F)cnc2c1C(=O)Nc1cnncc1N1CCC(CN2CCOCC2)CC1 [I-B-8]
10 to 1000 nM
4. Cc1cnccc1-c1cnccc1NC(=O)c1c(N)nn2cc(F)cnc12 [I-C-6]
10 to 1000 nM
5. Nc1nn2cc(F)cnc2c1C(=O)Nc1cnncc1N1CCC(C(=O)N2CC(F)(F)C2)CC1 [I-B-21]
10 to 1000 nM
6. Cc1nsc(NC(=O)c2c(N)nn3cc(F)cnc23)c1-n1cccn1 [I-E-10]
< 10 nM
7. CN1CC[C@H](Oc2ncncc2NC(=O)c2c(N)nn3cc(F)cnc23)C1 [I-A-11]
1000 to 5000 nM

---

pKi values, listed per item
- experimentalTarget: ATR kinase, in the presence of partner proteins ATRIP, CLK2 and TopBP1 (Homo sapiens, UniProt Q13535)
- Construct: in the presence of 4 nM full-length ATR, 40 nM full-length ATRIP
- Sequence (Q8WXE1 whole entry partner, one chain of several): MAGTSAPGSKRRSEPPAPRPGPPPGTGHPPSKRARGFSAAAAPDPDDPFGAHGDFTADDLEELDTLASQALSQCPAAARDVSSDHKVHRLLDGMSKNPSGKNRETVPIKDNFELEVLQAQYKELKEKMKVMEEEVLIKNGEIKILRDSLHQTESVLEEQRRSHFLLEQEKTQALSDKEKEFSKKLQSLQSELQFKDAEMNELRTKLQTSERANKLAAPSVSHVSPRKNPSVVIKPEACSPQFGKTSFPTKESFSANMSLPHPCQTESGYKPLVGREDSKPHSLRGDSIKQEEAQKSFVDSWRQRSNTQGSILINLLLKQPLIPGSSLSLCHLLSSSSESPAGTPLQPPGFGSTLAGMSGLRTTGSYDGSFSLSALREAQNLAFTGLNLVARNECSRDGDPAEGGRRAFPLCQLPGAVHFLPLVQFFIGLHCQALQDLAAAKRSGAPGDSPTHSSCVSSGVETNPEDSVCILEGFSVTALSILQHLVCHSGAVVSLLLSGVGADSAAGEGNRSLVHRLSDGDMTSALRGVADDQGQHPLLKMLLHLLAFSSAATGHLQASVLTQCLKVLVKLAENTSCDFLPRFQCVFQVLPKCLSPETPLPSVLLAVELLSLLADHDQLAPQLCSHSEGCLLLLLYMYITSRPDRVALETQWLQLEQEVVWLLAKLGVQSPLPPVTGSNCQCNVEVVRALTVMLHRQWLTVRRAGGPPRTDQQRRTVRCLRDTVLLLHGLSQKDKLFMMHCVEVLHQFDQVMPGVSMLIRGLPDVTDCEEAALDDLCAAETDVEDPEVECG
- methodNotes: ATR-Complex Inhibition Assay (radioactive-phosphate incorporation)
- Format: biochemical
- testContext: Ki(app); 4 nM full-length ATR, 40 nM ATRIP, 40 nM CLK2, 600 nM TopBP1(A891-S1105), 10 μM ATP, 25° C.
pKi: −log10 of the molar value.
assayMetric: pKi

1. CN1CCN(C(=O)c2ccc(-c3cnncc3NC(=O)c3c(N)nn4cc(F)cnc34)cc2)CC1 [I-B-13]
> 8.00
2. Nc1nn2cc(F)cnc2c1C(=O)Nc1ccncc1N1CCN(C2COC2)CC1 [I-C-1]
> 8.00

---

Ki values, listed per item
- experimentalTarget: ATR kinase (full-length ATR) (Homo sapiens, UniProt Q13535)
- Construct: in the presence of 5 nM full-length ATR
- Sequence (Q13535 whole entry): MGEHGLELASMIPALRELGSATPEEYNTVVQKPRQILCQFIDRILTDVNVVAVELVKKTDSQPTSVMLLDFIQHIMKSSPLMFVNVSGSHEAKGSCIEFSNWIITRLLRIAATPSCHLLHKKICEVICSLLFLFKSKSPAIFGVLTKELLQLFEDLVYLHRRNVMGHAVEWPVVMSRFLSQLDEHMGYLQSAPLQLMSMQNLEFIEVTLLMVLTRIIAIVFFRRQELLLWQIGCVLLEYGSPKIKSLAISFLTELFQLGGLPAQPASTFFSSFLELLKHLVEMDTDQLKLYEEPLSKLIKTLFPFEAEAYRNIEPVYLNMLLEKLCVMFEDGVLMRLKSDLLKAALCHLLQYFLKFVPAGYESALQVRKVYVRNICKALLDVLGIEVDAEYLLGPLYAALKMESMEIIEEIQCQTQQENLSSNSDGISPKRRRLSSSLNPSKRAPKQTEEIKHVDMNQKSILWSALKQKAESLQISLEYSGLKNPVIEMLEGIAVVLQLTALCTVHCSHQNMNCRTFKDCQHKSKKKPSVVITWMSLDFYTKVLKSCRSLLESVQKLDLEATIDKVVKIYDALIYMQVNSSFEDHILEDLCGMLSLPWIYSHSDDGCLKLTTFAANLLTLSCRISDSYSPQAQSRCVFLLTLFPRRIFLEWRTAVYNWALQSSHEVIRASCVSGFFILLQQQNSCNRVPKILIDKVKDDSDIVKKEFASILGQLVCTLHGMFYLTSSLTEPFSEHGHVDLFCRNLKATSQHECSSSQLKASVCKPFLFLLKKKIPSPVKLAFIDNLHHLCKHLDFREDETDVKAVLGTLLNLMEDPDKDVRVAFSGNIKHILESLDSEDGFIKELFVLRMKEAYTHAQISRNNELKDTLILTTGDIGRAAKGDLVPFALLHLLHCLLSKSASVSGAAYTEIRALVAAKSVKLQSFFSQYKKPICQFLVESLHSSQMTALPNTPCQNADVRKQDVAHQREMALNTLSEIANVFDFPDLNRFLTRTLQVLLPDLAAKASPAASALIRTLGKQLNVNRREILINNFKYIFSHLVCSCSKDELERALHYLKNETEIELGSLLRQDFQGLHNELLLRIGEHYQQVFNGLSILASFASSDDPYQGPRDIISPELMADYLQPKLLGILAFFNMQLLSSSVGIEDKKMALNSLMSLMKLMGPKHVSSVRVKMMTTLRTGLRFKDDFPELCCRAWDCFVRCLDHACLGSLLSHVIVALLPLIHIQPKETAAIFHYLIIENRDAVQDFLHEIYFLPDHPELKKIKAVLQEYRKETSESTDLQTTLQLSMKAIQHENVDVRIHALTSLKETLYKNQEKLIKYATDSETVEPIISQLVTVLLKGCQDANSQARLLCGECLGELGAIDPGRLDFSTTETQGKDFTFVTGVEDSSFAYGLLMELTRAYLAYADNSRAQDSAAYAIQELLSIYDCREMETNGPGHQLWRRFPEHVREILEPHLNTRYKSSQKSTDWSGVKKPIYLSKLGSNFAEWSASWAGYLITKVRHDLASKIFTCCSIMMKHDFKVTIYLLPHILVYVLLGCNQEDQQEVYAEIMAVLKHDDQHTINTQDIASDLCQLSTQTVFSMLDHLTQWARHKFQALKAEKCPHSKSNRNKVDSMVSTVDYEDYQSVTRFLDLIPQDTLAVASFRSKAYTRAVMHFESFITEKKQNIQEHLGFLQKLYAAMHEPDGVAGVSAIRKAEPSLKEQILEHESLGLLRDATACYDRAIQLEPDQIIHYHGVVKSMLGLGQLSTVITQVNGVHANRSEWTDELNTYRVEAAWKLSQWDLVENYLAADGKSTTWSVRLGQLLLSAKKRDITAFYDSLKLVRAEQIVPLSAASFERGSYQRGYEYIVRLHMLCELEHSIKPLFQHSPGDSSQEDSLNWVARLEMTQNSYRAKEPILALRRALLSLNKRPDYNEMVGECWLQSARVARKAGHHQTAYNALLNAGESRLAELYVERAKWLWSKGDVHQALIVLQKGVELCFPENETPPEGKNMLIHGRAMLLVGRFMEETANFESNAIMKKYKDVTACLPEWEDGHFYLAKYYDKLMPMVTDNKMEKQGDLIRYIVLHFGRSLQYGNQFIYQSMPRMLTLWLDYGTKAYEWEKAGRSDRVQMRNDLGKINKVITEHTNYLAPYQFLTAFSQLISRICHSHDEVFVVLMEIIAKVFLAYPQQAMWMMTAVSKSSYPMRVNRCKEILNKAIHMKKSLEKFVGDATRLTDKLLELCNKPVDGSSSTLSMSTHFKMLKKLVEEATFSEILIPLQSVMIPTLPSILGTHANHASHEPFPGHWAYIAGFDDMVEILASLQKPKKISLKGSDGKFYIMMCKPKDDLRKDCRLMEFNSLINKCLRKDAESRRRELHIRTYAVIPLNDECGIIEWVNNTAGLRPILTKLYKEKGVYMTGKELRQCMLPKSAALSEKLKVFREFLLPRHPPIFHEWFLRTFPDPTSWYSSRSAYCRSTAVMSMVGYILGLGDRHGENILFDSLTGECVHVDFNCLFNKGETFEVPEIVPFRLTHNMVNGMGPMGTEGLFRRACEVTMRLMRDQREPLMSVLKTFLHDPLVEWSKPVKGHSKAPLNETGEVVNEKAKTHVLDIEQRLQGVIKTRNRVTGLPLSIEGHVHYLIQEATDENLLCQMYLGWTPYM
- methodNotes: ATR Inhibition Assay (radioactive-phosphate incorporation)
- testContext: Ki(app); 5 nM full-length ATR, 10 μM ATP, 800 μM target peptide, 25° C.
assayMetric: Ki

1) Nc1nn2cc(F)cnc2c1C(=O)Nc1ccncc1N1CCN(C2COC2)CC1
10 to 1000 nM
2) Cc1ncccc1-c1cnncc1NC(=O)c1c(N)nn2cc(F)cnc12
10 to 1000 nM
3) Nc1nn2cc(F)cnc2c1C(=O)Nc1cncn1C1CC1
10 to 1000 nM
4) Nc1nn2cc(F)cnc2c1C(=O)Nc1cnncc1N1CCOCC1
10 to 1000 nM
5) Nc1nn2cc(F)cnc2c1C(=O)Nc1cnncc1N1CCC(CN2CCC(F)(F)C2)CC1
10 to 1000 nM
6) CN1CCN(c2ncncc2NC(=O)c2c(N)nn3cc(F)cnc23)CC1
1000 to 5000 nM
7) Cc1cc(-c2c(C)nsc2NC(=O)c2c(N)nn3cc(F)cnc23)ccn1
10 to 1000 nM
8) Cc1nsc(NC(=O)c2c(N)nn3cc(F)cnc23)c1-c1ccncc1
10 to 1000 nM
9) Cc1nsc(NC(=O)c2c(N)nn3cc(F)cnc23)c1C1=CCOCC1
< 10 nM
10) Cn1cncc1-c1cnncc1NC(=O)c1c(N)nn2cc(F)cnc12
10 to 1000 nM
11) Nc1nn2cc(F)cnc2c1C(=O)Nc1cnncc1N1CCN(C2COC2)CC1
10 to 1000 nM
12) CS(=O)(=O)C1CCN(c2cnncc2NC(=O)c2c(N)nn3cc(F)cnc23)CC1
10 to 1000 nM
13) Cc1nsc(NC(=O)c2c(N)nn3cc(F)cnc23)c1-c1cncnc1
10 to 1000 nM
14) Cc1nn(C)cc1-c1c(C)nsc1NC(=O)c1c(N)nn2cc(F)cnc12
10 to 1000 nM
15) Nc1nn2cc(F)cnc2c1C(=O)Nc1cncnc1O[C@@H]1CN2CCC1CC2
10 to 1000 nM
16) Nc1nn2cc(F)cnc2c1C(=O)Nc1ccncc1N1CCC(C(=O)N2CCN3CCC2CC3)CC1
10 to 1000 nM
17) Nc1nn2cc(F)cnc2c1C(=O)Nc1cnncc1N1CCN(C2CCOCC2)CC1
10 to 1000 nM
18) Nc1nn2cc(F)cnc2c1C(=O)Nc1cncn1C1CCOCC1
10 to 1000 nM
19) Cc1nsc(NC(=O)c2c(N)nn3cc(F)cnc23)c1CN1CCOCC1
10 to 1000 nM
20) CN(C)[C@H]1CC[C@H](Oc2ncncc2NC(=O)c2c(N)nn3cc(F)cnc23)CC1
10 to 1000 nM
21) Nc1nn2cc(F)cnc2c1C(=O)Nc1cncnc1O[C@H]1CN2CCC1CC2
10 to 1000 nM
22) Nc1nn2cc(F)cnc2c1C(=O)Nc1cnncc1N1CCC(C(=O)N2CC(F)C2)CC1
< 10 nM
23) Nc1nn2cc(F)cnc2c1C(=O)Nc1cncn1-c1ccccc1
10 to 1000 nM
24) Nc1nn2cc(F)cnc2c1C(=O)Nc1cncnc1O[C@H]1C[C@]2(CCN2)C1
1000 to 5000 nM
25) COc1ncncc1NC(=O)c1c(N)nn2ccc(OCCN(C)C)nc12
1000 to 5000 nM
26) CS(=O)(=O)C1CCN(c2cnccc2NC(=O)c2c(N)nn3cc(F)cnc23)CC1
< 10 nM
27) Cc1nsc(NC(=O)c2c(N)nn3cc(F)cnc23)c1CN1CCN(C)CC1
< 10 nM
28) Nc1nn2cc(Cl)cnc2c1C(=O)Nc1cncnc1OC1CCN(C2COC2)CC1
1000 to 5000 nM
29) Nc1nn2cc(F)cnc2c1C(=O)Nc1ccncc1N1CCC(C(=O)N2CCC(N3CCCC3)CC2)CC1
10 to 1000 nM
30) CN1CCN(CC2CCN(c3cnncc3NC(=O)c3c(N)nn4cc(F)cnc34)CC2)CC1
10 to 1000 nM
31) Nc1nn2cc(F)cnc2c1C(=O)Nc1cnncc1N1CCCC1
1000 to 5000 nM
32) CN1CCC[C@H](Oc2ncncc2NC(=O)c2c(N)nn3cc(F)cnc23)C1
10 to 1000 nM
33) N#CCc1cnc2c(C(=O)Nc3cncn3Cc3ccccc3)c(N)nn2c1
< 10 nM
34) Nc1nn2cc(F)cnc2c1C(=O)Nc1cnncc1N1CCC(F)CC1
10 to 1000 nM
35) CC(C)Oc1ncncc1NC(=O)c1c(N)nn2cc(F)cnc12
10 to 1000 nM
36) CN1CC[C@@H](Oc2ncncc2NC(=O)c2c(N)nn3cc(F)cnc23)C1
10 to 1000 nM
37) Cc1nsc(NC(=O)c2c(N)nn3cc(F)cnc23)c1N1CCCC1
10 to 1000 nM
38) CN1CCC[C@@H](Oc2ncncc2NC(=O)c2c(N)nn3cc(F)cnc23)C1
1000 to 5000 nM

---

- experimentalTarget: ATR kinase (full-length ATR) (Homo sapiens)
- Construct: in the presence of 5 nM full-length ATR
- methodNotes: ATR Inhibition Assay (radioactive-phosphate incorporation)
- testContext: Ki(app); 5 nM full-length ATR, 10 μM ATP, 800 μM target peptide, 25° C.
assayMetric: Ki

1. Cc1cc(-c2c(C)nsc2NC(=O)c2c(N)nn3cc(F)cnc23)n(C)n1
10 to 1000 nM
2. CN1CCN(C(=O)C2CCN(c3cnncc3NC(=O)c3c(N)nn4cc(F)cnc34)CC2)CC1
10 to 1000 nM
3. Nc1nn2cc(F)cnc2c1C(=O)Nc1cncn1-c1cccnc1
10 to 1000 nM
4. Cc1nsc(NC(=O)c2c(N)nn3cc(F)cnc23)c1C1=CCN(C)CC1
10 to 1000 nM
5. Cc1nsc(NC(=O)c2c(N)nn3cc(F)cnc23)c1-c1cncn1C
10 to 1000 nM
6. Cc1ncccc1-c1c(C)nsc1NC(=O)c1c(N)nn2cc(F)cnc12
< 10 nM
7. Cc1nsc(NC(=O)c2c(N)nn3cc(F)cnc23)c1-c1ccccc1
< 10 nM
8. Nc1nn2cc(F)cnc2c1C(=O)Nc1cnncc1N1CCCCC1
10 to 1000 nM
9. Nc1nn2cc(F)cnc2c1C(=O)Nc1ccncc1N1CCC(C(=O)N2CCN(C3COC3)CC2)CC1
10 to 1000 nM
10. Cc1nncc(NC(=O)c2c(N)nn3cc(F)cnc23)c1N1CCC(C(=O)N2CCN(C)CC2)CC1
10 to 1000 nM
11. Cc1nsc(NC(=O)c2c(N)nn3cc(F)cnc23)c1-c1ccnn1C
10 to 1000 nM
12. COc1ncncc1NC(=O)c1c(N)nn2cc(CC#N)cnc12
10 to 1000 nM
13. CN1CCN(C2CCN(c3cnncc3NC(=O)c3c(N)nn4cc(F)cnc34)CC2)CC1
10 to 1000 nM
14. CN1CCN(c2cnccc2NC(=O)c2c(N)nn3cc(F)cnc23)CC1
10 to 1000 nM
15. COCc1c(C)nsc1NC(=O)c1c(N)nn2cc(F)cnc12
10 to 1000 nM
16. Nc1nn2cc(F)cnc2c1C(=O)Nc1cncnc1OC1CCN(C2COC2)CC1
10 to 1000 nM
17. Cc1nsc(NC(=O)c2c(N)nn3cc(F)cnc23)c1-c1cccnc1
10 to 1000 nM
18. CN1CCN(c2cnncc2NC(=O)c2c(N)nn3cc(F)cnc23)CC1
10 to 1000 nM
19. CC(C)(C)N1CCN(C(=O)C2CCN(c3cnncc3NC(=O)c3c(N)nn4cc(F)cnc34)CC2)CC1
10 to 1000 nM
